- Test system: TO-3-N3-2 (biotin conjugate)
- assay: pull-down binding Z-score (relative to library population); higher = stronger binding
- condition parameters: RNA library: Library-2
The sequences listed here are annotated with their pull-down binding Z-score.
observable: pull-down binding Z-score

>>> result_value("UCUCAAUCCAUUCAUAUUGAAA [hsa-mir-3662]")
-0.33
>>> result_value("UGAACCACAAAUCA [SHAPE_invitro_SARS-CoV-2_Motif_451]")
-0.565
>>> result_value("AGUAUUUUAAUCAUAGAUUGUAUUUAGUUAGUUUUUAAUACU [hsa-mir-4637]")
0.157
>>> result_value("UCCCAGCCACUCUGGAGG [hsa-mir-4419b]")
-0.194
>>> result_value("GGAGGAGGAGGAGGAGGAGGAGGAGGAGGAGGAGGAGGAGGAGGAGGA [G4_r(GGA)16]")
8.95
>>> result_value("GGAAUCCUACGUGAGGGACAAUCAUUCAGACCCACGUAGCAGUGUUCU [hsa-mir-1299]")
0.392
>>> result_value("AGAAAUCAAGCUAUUUGCUAAAAGUUCU [hsa-mir-6844]")
0.246
>>> result_value("GUUCGUGUUGUUUUAGAUUUCAUCUAAACGAAC")
-0.562
>>> result_value("UGGGCAGUUCUUCUGCUGG [hsa-mir-1587]")
0.0756
>>> result_value("UCAUACUGAAAGCGAACUUCAGUGUGA [IAV_invivo_NS1_NEP_8_Motif_9+IAV_invivo_NS1_NEP_8_Motif_9]")
-0.294
